assay: yeast display, Sf9 membrane polyspecificity reagent, FACS + sequencing; frameworks hold sequencing errors
Experimental Endpoint: polyreactivity (PSR sort gate)

| Seq String | Experimental Endpoint | Measured Result |
| --- | --- | --- |
| QVQLVESGGGLVQAGGSLRLSCATSGNIFWRYSIRWYRQAPGKEREFVAGISLRGSSTYYADSVKGRFTISRDNAKNTVYLEMNSLKPEDTAVYYCAVRQPRGSTVFYGGNYWGQGTQVTVSS | polyreactivity (PSR sort gate) | low polyreactivity |
| QVQLVETVGGLVQAGGSLRLTCAASGFTIYYNAMGWYRQAPGKERELVASISSNGTSTYYADSVKGRFTISRDNAKNTVYLQMNSLKPEDTAVYYCNVDIFDPRTYDYWGQGTQVTVSS | polyreactivity (PSR sort gate) | low polyreactivity |
| QVQLVESGGGLVQAGGSLRLSCAASGRTFYFYVMGWYRQAPGKERELVARISWSGGSTYYADSVKGRFTISRDNAKNTVYLQMNSLKPEDTAVYYCARQYKYPSSGEYDSWGQGTQVTVSS | polyreactivity (PSR sort gate) | low polyreactivity |
| QVQLVDSGRGLVQAGGSLRLSCASSGSTFRDYAMGWYRQAPGKETELVAVITWNGGSTYYADSVKGRFTISRDNAKNTVYLEMNSLKPEDTAVYYCGAVYPRSLSTEYYYWGQGTQVTVSS | polyreactivity (PSR sort gate) | high polyreactivity |
| QVQLVESGGGLVQAGGSLRLSCAASGRIFGRNTMGWYRQAPGKERELVAVISWRGGSTYYADSVKGRFTISRDNAKNTVYLQMNSLKPEDTAVYDCNPKYPFSRRGDYWGQGTQVTVSS | polyreactivity (PSR sort gate) | high polyreactivity |
